- System: Ba/F3-EGFR ins. ASV cells
- Protocol: Cell proliferation suppression test (CellTiter-Glo, GI50), Ba/F3-EGFR ins. ASV
- Assay type: cell-based
- Recorded conditions: Mus musculus, 72 h, 3 days, N=4
Quantity measured: GI50 (nM)

# Smiles string, Target or test system, GI50 / nM
records = [
    ("[2H]C([2H])([2H])C(NC(=O)n1ccc(Oc2ccc(Nc3ncnc4cc(OC)c(OC5CCN(C(=O)C=C)CC5)cc34)c(F)c2)n1)(C([2H])([2H])[2H])C([2H])([2H])[2H]", "Ba/F3-EGFR ins. ASV cells", 18.8),
    ("C=CC(=O)N1CCC(Oc2cc3c(Nc4ccc(Oc5ccn(C(=O)N[C@H](C)C(F)(F)F)n5)cc4F)ncnc3cc2OC)CC1", "Ba/F3-EGFR ins. ASV cells", 11.8),
    ("COc1cc2ncnc(Nc3ccc(Oc4nn(CC(=O)NC(C)(C)C)cc4F)cc3Cl)c2cc1NC(=O)/C=C/CN1CC[C@@H](F)C1", "Ba/F3-EGFR ins. ASV cells", 8.5),
]

A. COc1cc2ncnc(Nc3ccc(Oc4cccc(-c5nnc(C(C)C)o5)c4)cc3F)c2cc1NC(=O)/C=C/CN(C)C
B. COc1cc2ncnc(Nc3ccc(Oc4nn(CC(=O)NC(C)(C)C)cc4F)cc3Cl)c2cc1NC(=O)/C=C/CN1CCOCC1
Q. Which numeric GI50 is bigger, that of A or that of B ? Answer by quoting the chosen item's label.
A. B

Source: patent US20230025510A1
